assay: high throughput solubility (HT-Solubility); type: physicochemical; details: pH 1, pH 1.0; read-out: HT-Solubility pH 1.0

ENTRY_SMILES | solubility, µg/mL
CCCC(=O)N[C@H](CC(=O)N[C@H](Cc1c[nH]c2ccccc12)C(=O)N[C@@H](CCCCN)CC(=O)NC1CCCC1)Cc1ccccc1 | 129
CCC(=O)N[C@H](CC(=O)N[C@H](Cc1c[nH]c2ccccc12)C(=O)N[C@@H](CCCCN)CC(N)=O)Cc1ccccc1 | 112
CC(C)[C@@H](CC(=O)N(C)CCc1ccccc1)NC(=O)C[C@H](CCCCN)NC(=O)[C@@H](Cc1c[nH]c2ccccc12)NC(=O)C[C@H](Cc1ccccc1)NC(=O)CCc1ccccc1 | 17.4

* * *

Measured Papp, listed per entry for reference.
experiment: high throughput permeability (HT-Permeability, log Pe); assay type: physicochemical; settings: PAMPA, pH 6.8, pH 6.8; Pe in cm/s; read-out: HT-Permeability logPe pH 6.8 (converted)

COMPOUND | UNIT | Papp
CCCCCNC(=O)C[C@H](CCCCN)NC(=O)[C@@H](Cc1c[nH]c2ccccc12)N(C)C(=O)C[C@H](Cc1ccccc1)NC(=O)CC | ×10⁻⁶ cm/s | 3.98
CCCCNC(=O)C[C@H](CCCCN)NC(=O)[C@@H](Cc1c[nH]c2ccccc12)NC(=O)C[C@H](Cc1ccccc1)NC(=O)CC | ×10⁻⁶ cm/s | 5.01
CCCCN(C)C(=O)C[C@H](CCCCN)NC(=O)[C@@H](Cc1c[nH]c2ccccc12)NC(=O)C[C@H](Cc1ccccc1)NC(=O)CCC | ×10⁻⁶ cm/s | 2
CCCCCN(C)C(=O)C[C@H](CCCCN)NC(=O)[C@@H](Cc1c[nH]c2ccccc12)NC(=O)C[C@H](Cc1ccccc1)NC(=O)CCC | ×10⁻⁶ cm/s | 3.98
CCCCCNC(=O)C[C@H](CCCCN)NC(=O)[C@@H](Cc1c[nH]c2ccccc12)NC(=O)C[C@H](Cc1ccccc1)NC(=O)CCC | ×10⁻⁶ cm/s | 0.1
CCC(=O)N[C@H](CC(=O)N[C@H](Cc1c[nH]c2ccccc12)C(=O)N[C@@H](CCCCN)CC(N)=O)Cc1ccccc1 | ×10⁻⁶ cm/s | 7.94
CCCCCN(C)C(=O)C[C@H](CCCCN)NC(=O)[C@@H](Cc1c[nH]c2ccccc12)NC(=O)C[C@H](Cc1ccccc1)NC(C)=O | ×10⁻⁶ cm/s | 1.58
CCCCCCN(C)C(=O)C[C@H](CCCCN)NC(=O)[C@@H](Cc1c[nH]c2ccccc12)N(C)C(=O)C[C@H](Cc1ccccc1)NC(=O)CC | ×10⁻⁶ cm/s | 2.51
CC(=O)N[C@H](CC(=O)N[C@H](Cc1c[nH]c2ccccc12)C(=O)N[C@@H](CCCCN)CC(N)=O)Cc1ccccc1 | ×10⁻⁶ cm/s | 5.01
CC(=O)N[C@H](CC(=O)N[C@H](Cc1c[nH]c2ccccc12)C(=O)N[C@@H](CCCCN)CC(=O)NC1CCCC1)Cc1ccccc1 | ×10⁻⁶ cm/s | 2
CCCCCN(C)C(=O)C[C@H](CCCCN)NC(=O)[C@@H](Cc1c[nH]c2ccccc12)N(Cc1ccccc1)C(=O)C[C@H](Cc1ccccc1)NC(=O)CC | ×10⁻⁶ cm/s | 7.94
NCCCC[C@@H](CC(N)=O)NC(=O)[C@@H](Cc1c[nH]c2ccccc12)NC(=O)C[C@@H](N)Cc1ccccc1 [Compound 59, (S)-β^3-HPhe-(R)-Trp-(S)-β^3-HLys-NH2] | ×10⁻⁶ cm/s | 3.98

The reported numbers originate from patent US20090305995A1.
